Values compiled from ChEMBL document CHEMBL3994665.

Observed Ki for 5-hydroxytryptamine receptor 2A (Homo sapiens), reported per entry below.

Query: Need Ki, item "CC1=C(CO)Oc2cccc3c2c1cn3S(=O)(=O)c1ccccc1"
Reply: > 10000 nM

Query: Need Ki, item "CC1=C(CO)Oc2cccc3c2c1cn3S(=O)(=O)c1cccc2ccccc12"
Reply: > 10000 nM

Query: Need Ki, item "O=S(=O)(c1cccc2ccccc12)n1cc2c3c(cccc31)OC(CO)=C2"
Reply: > 10000 nM

Query: Need Ki, item "O=S(=O)(c1ccccc1)n1cc2c3c(cccc31)OC(CO)=C2"
Reply: > 10000 nM

Query: Need Ki, item "CCN(CC)CC1=Cc2cn(S(=O)(=O)c3ccccc3)c3cccc(c23)O1"
Reply: 1700 nM

Query: Need Ki, item "CN(C)CC1=Cc2cn(S(=O)(=O)c3ccccc3)c3cccc(c23)O1"
Reply: 65 nM

Query: Need Ki, item "CN(C)CC1=Cc2cn(S(=O)(=O)c3cccc4ccccc34)c3cccc(c23)O1"
Reply: 489 nM

* * *

- experimental-system: D(2) dopamine receptor (Homo sapiens)
- Sequence (P14416 whole entry): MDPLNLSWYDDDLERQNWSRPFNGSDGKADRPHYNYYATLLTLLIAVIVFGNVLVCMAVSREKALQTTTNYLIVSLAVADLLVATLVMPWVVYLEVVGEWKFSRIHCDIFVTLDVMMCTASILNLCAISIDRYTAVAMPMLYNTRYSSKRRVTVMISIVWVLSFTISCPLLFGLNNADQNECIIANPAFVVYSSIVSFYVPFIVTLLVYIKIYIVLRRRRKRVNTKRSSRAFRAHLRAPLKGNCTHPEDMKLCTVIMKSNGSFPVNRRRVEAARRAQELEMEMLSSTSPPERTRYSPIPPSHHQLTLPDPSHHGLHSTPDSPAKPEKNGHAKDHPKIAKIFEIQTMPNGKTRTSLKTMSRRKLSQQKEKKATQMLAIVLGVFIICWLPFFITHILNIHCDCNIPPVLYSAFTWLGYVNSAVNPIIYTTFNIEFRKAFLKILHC
- assay-procedure: Displacement of [3H]-Raclopride from D2L receptor (unknown origin)
measured-endpoint: Ki (µM)
Return type: number; implicit unit µM.

Query: Need Ki, item "CCN(CC)CC1=Cc2cn(S(=O)(=O)c3ccccc3)c3cccc(c23)O1"
Reply: 4.35

Query: Need Ki, item "CN(C)CC1=Cc2cn(S(=O)(=O)c3cccc4ccccc34)c3cccc(c23)O1"
Reply: 1.49

Query: Need Ki, item "O=S(=O)(c1cccc2ccccc12)n1cc2c3c(cccc31)OC(CO)=C2"
Reply: 4.29
